Tested on: THP-1 cells
Assay Protocol: Cellular toxicity (MTT assay) in THP-1 cells
Assay type: cell-based, human
Run Parameters: Selectivity Index
Parameter: SI (EC50 THP-1/EC50 parasite)
Numbers only.

Consider the following items and state reported SI (EC50 THP-1/EC50 parasite) for each.
1. CCCCCCCCSCCC[C@@H]1[C@H](O)[C@@H](O)[C@@H](O)[C@H]2COC(=O)N12 [Compound 7]
2. CCCCCCCCSCCC[C@@H]1[C@H](O)[C@@H](O)[C@H](O)[C@H]2COC(=O)N12 [Compound 1]
3. CCCCCCCCCCCCS(=O)(=O)CCC[C@@H]1[C@H](O)[C@@H](O)[C@H](O)[C@H]2COC(=O)N12 [Compound 5]

12.06
17.06
8.78

---

Tested on: human solid tumor cell lines A549, SW1573 (lung), HBL-100, T-47D (breast), HeLa (cervix), WiDr (colon)
Assay Protocol: Antiproliferative activity (SRB assay) against a panel of six human solid tumor cell lines
Assay type: cell-based
Run Parameters: read-out: GI50 (concentration to achieve 50% growth inhibition), 48 h, tested 1 to 100 μM, only values below 100 μM significant
Parameter: GI50

These solved cases illustrate the format of a correct answer.
CCCCCCCCCCCCSCCC[C@@H]1[C@H](O)[C@@H](O)[C@H](O)[C@H]2COC(=O)N12 [Compound 2] :: 9.6 to 19 µM
CC(C)(C)OC(=O)NCCSCCC[C@@H]1[C@H](O)[C@@H](O)[C@H](O)[C@H]2COC(=O)N12 [Compound 3] :: > 100 µM
CCCCCCCCS(=O)(=O)CCC[C@@H]1[C@H](O)[C@@H](O)[C@@H](O)[C@H]2COC(=O)N12 [Compound 10] :: > 100 µM

Now look at this entry.
Given the compound CCCCCCCCSCCC[C@@H]1[C@H](O)[C@@H](O)[C@H](O)[C@H]2COC(=O)N12 [Compound 1] , write its reported GI50. 14 to 54 µM

---

Tested on: THP-1 cells
Assay Protocol: Cellular toxicity (MTT assay) in THP-1 cells
Assay type: cell-based, human
Run Parameters: Homo sapiens, THP-1; MTT assay; 72 h at 37 °C
Method: Human myelomonocytic cell line THP-1 was grown at 37 °C and 5% CO2 in RPMI-1640 supplemented with 10% iFBS, 2 mM […], 100 U/mL penicillin, and 100 μg/mL streptomycin; 3 × 10^4 cells/well in 96-well plates were differentiated to macrophages with 20 ng/mL of PMA treatment for 48 h followed by 24 h of culture in fresh medium. […]
So I've got a bunch of compounds here, and I need their EC50 values.

These solved cases illustrate the format of a correct answer.
CCCCCCCCS(=O)(=O)CCC[C@@H]1[C@H](O)[C@@H](O)[C@H](O)[C@H]2COC(=O)N12 [Compound 4] :: > 200 µM
CC(C)(C)OC(=O)NCCS(=O)(=O)CCC[C@@H]1[C@H](O)[C@@H](O)[C@@H](O)[C@H]2COC(=O)N12 [Compound 12] :: > 200 µM
C[C@@H]1[C@H](O)[C@@H](C)/C=C/C=C/C=C/C=C/C=C/C=C/C=C/[C@H](O[C@@H]2O[C@H](C)[C@@H](O)[C@H](N)[C@@H]2O)C[C@@H]2O[C@](O)(C[C@@H](O)C[C@@H](O)[C@H](O)CC[C@@H](O)C[C@@H](O)CC(=O)O[C@H]1C)C[C@H](O)[C@H]2C(=O)O [AmB, amphotericin B, reference compound] :: 20.1 µM
CC(C)(C)OC(=O)NCCSCCC[C@@H]1[C@H](O)[C@@H](O)[C@H](O)[C@H]2COC(=O)N12 [Compound 3] :: > 200 µM
CCCCCCCCS(=O)(=O)CCC[C@@H]1[C@H](O)[C@@H](O)[C@@H](O)[C@H]2COC(=O)N12 [Compound 10] :: > 200 µM

Consider the following items and state reported EC50 for each.
1. CCCCCCCCCCCCSCCC[C@@H]1[C@H](O)[C@@H](O)[C@@H](O)[C@H]2COC(=O)N12 [Compound 8]
2. CCCCCCCCSCCC[C@@H]1[C@H](O)[C@@H](O)[C@H](O)[C@H]2COC(=O)N12 [Compound 1]
3. CCCCCCCCSCCC[C@@H]1[C@H](O)[C@@H](O)[C@@H](O)[C@H]2COC(=O)N12 [Compound 7]

1: 68.3 µM; 2: 131 µM; 3: 128 µM

Given the compound CC(C)(C)OC(=O)NCCSCCC[C@@H]1[C@H](O)[C@@H](O)[C@@H](O)[C@H]2COC(=O)N12 [Compound 9] , write its reported EC50. > 200 µM

---

Assay System: α-Glcase (Yeast Maltase) (Saccharomyces cerevisiae, UniProt P53341)
Construct: purchased
Sequence (P53341 whole entry): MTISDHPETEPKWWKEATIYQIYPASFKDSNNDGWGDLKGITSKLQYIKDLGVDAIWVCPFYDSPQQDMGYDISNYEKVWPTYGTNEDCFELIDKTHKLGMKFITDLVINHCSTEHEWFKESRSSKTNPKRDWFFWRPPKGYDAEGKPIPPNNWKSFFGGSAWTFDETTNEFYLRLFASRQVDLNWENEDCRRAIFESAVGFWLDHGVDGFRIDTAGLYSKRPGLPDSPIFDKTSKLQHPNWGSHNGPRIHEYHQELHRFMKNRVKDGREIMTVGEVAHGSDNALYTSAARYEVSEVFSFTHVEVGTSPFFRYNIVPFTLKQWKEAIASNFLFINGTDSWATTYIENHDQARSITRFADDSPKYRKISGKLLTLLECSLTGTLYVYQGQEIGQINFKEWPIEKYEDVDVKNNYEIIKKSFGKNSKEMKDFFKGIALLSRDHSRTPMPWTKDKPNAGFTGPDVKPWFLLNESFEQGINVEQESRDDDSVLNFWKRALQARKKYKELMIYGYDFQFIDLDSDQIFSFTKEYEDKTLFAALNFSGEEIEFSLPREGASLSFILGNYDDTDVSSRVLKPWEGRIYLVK
Assay Protocol: Glycosidase inhibition (Ki), yeast maltase α-glucosidase
Type: biochemical
Run Parameters: mean ± SD, three independent determinations; competitive inhibition; read-out: Ki, α-Glcase (Yeast Maltase)
Source text: The inhibitory properties of the new sp^2-IGLs 1–12 and the α-C-allyl ONJ and OGJ glycosides 15, and 24 were examined against a panel of commercial glycosidases that included the α-glucosidases maltase (Saccharomyces cerevisiae) and amyloglucosidase (Aspergillus niger), the β-glucosidases from almonds and bovine liver, α-galactosidase from green coffee beans, β-galactosidase from Escherichia coli, α-mannosidase from Jack beans, and β-mannosidase from Helix pomatia. […]
Note to self: use Satisfied only for Ki readings below 800 nM; a reading exactly at 800 nM still gets Not satisfied.

Solved cases below.
CCCCCCCCCCCCSCCC[C@@H]1[C@H](O)[C@@H](O)[C@H](O)[C@H]2COC(=O)N12 [Compound 2] :: Satisfied
CCCCCCCCCCCCS(=O)(=O)CCC[C@@H]1[C@H](O)[C@@H](O)[C@H](O)[C@H]2COC(=O)N12 [Compound 5] :: Not satisfied
CCCCCCCCS(=O)(=O)CCC[C@@H]1[C@H](O)[C@@H](O)[C@H](O)[C@H]2COC(=O)N12 [Compound 4] :: Not satisfied
CC(C)(C)OC(=O)NCCS(=O)(=O)CCC[C@@H]1[C@H](O)[C@@H](O)[C@H](O)[C@H]2COC(=O)N12 [Compound 6] :: Satisfied

Dear colleague, could you confirm whether Ki of CCCCCCCCSCCC[C@@H]1[C@H](O)[C@@H](O)[C@H](O)[C@H]2COC(=O)N12 [Compound 1] falls below 800 nM? Thanks. Satisfied

---

System: human solid tumor cell lines A549, SW1573 (lung), HBL-100, T-47D (breast), HeLa (cervix), WiDr (colon)
Assay Protocol: Antiproliferative activity (SRB assay) against a panel of six human solid tumor cell lines
Type: cell-based
Run Parameters: read-out: GI50 (concentration to achieve 50% growth inhibition), 48 h, tested 1 to 100 μM, only values below 100 μM significant
Parameter: GI50

CC(C)(C)OC(=O)NCCSCCC[C@@H]1[C@H](O)[C@@H](O)[C@@H](O)[C@H]2COC(=O)N12 [Compound 9] :: > 100 µM
CC(C)(C)OC(=O)NCCS(=O)(=O)CCC[C@@H]1[C@H](O)[C@@H](O)[C@H](O)[C@H]2COC(=O)N12 [Compound 6] :: > 100 µM
CCCCCCCCCCCCS(=O)(=O)CCC[C@@H]1[C@H](O)[C@@H](O)[C@@H](O)[C@H]2COC(=O)N12 [Compound 11] :: 26 to 82 µM
CCCCCCCCCCCCSCCC[C@@H]1[C@H](O)[C@@H](O)[C@@H](O)[C@H]2COC(=O)N12 [Compound 8] :: 9.6 to 19 µM
CCCCCCCCS(=O)(=O)CCC[C@@H]1[C@H](O)[C@@H](O)[C@H](O)[C@H]2COC(=O)N12 [Compound 4] :: > 100 µM
CCCCCCCCSCCC[C@@H]1[C@H](O)[C@@H](O)[C@@H](O)[C@H]2COC(=O)N12 [Compound 7] :: 14 to 54 µM

Consider the following items and state reported GI50 for each.
1. CCCCCCCCCCCCS(=O)(=O)CCC[C@@H]1[C@H](O)[C@@H](O)[C@H](O)[C@H]2COC(=O)N12 [Compound 5]
2. CC(C)(C)OC(=O)NCCS(=O)(=O)CCC[C@@H]1[C@H](O)[C@@H](O)[C@@H](O)[C@H]2COC(=O)N12 [Compound 12]

1: 26 to 82 µM; 2: > 100 µM

---

Assay System: α-Glcase (Yeast Maltase) (Saccharomyces cerevisiae)
Construct: purchased
Assay Protocol: Glycosidase inhibition (Ki), yeast maltase α-glucosidase
Assay type: biochemical
Run Parameters: mean ± SD, three independent determinations; competitive inhibition
Parameter: Ki, α-Glcase (Yeast Maltase)

These solved cases illustrate the format of a correct answer.
C=CC[C@@H]1[C@H](O)[C@@H](O)[C@@H](O)[C@H]2COC(=O)N12 :: n.i.
CCCCCCCCSCCC[C@@H]1[C@H](O)[C@@H](O)[C@@H](O)[C@H]2COC(=O)N12 :: n.i.
CC(C)(C)OC(=O)NCCS(=O)(=O)CCC[C@@H]1[C@H](O)[C@@H](O)[C@@H](O)[C@H]2COC(=O)N12 :: n.i.
CC(C)(C)OC(=O)NCCSCCC[C@@H]1[C@H](O)[C@@H](O)[C@@H](O)[C@H]2COC(=O)N12 :: n.i.
CCCCCCCCS(=O)(=O)CCC[C@@H]1[C@H](O)[C@@H](O)[C@@H](O)[C@H]2COC(=O)N12 :: n.i.

Now look at this entry.
Given the compound CCCCCCCCCCCCS(=O)(=O)CCC[C@@H]1[C@H](O)[C@@H](O)[C@@H](O)[C@H]2COC(=O)N12 , write its reported Ki, α-Glcase (Yeast Maltase). n.i.
